Biological target: Photosystem II protein D1 (Spinacia oleracea)
Assay: Inhibition of photosynthetic electron transport at the PSII level in intact chloroplasts from Spinacia oleracea (spinach) leaves assessed as inhibition of in vitro activity by Hill reaction assay
Details: read-out: pIC50 (converted)
Assay Readout: log10(IC50) (log10 of the value in nM)
For clarity, the numbers are log10 values of IC50 expressed in nM.

Example entries and their recorded answers appear below.
[[record]]
compound = "CC/N=c1/sc(=O)[nH]c2cc(C)nn12"
target_desc = "Photosystem II protein D1 (Spinacia oleracea)"
recorded_number = 3.46

[[record]]
compound = "CCC(C)n1c(=O)[nH]c2cc(C)nn2c1=O (stereo not drawn)"
target_desc = "Photosystem II protein D1 (Spinacia oleracea)"
recorded_number = 3.41

[[record]]
compound = "O=c1[nH]c2c(c(=O)n1C1CCCCC1)CCC2"
target_desc = "Photosystem II protein D1 (Spinacia oleracea)"
recorded_number = 1.90

[[record]]
compound = "CCn1c(=O)[nH]c2cc(C)nn2c1=O"
target_desc = "Photosystem II protein D1 (Spinacia oleracea)"
recorded_number = 4.51

[[record]]
compound = "CN(C)C(=O)Nc1ccc(Cl)c(Cl)c1"
target_desc = "Photosystem II protein D1 (Spinacia oleracea)"
recorded_number = 2.43

[[record]]
compound = "Cc1cc2[nH]c(=O)n(C3CCCCC3)c(=O)n2n1"
target_desc = "Photosystem II protein D1 (Spinacia oleracea)"
recorded_number = 2.51

[[record]]
compound = "CN(C)c1nc(=O)n(C2CCCCC2)c(=O)n1C"
target_desc = "Photosystem II protein D1 (Spinacia oleracea)"
recorded_number = 2.04

[[record]]
compound = "Cc1cc2[nH]c(=O)n(-c3ccccc3)c(=O)n2n1"
target_desc = "Photosystem II protein D1 (Spinacia oleracea)"
recorded_number = 5.23

[[record]]
compound = "CCCC/N=c1/sc(=O)[nH]c2cc(C)nn12"
target_desc = "Photosystem II protein D1 (Spinacia oleracea)"
recorded_number = 2.76

[[record]]
compound = "CCCCn1c(=O)[nH]c2cc(C)nn2c1=O"
target_desc = "Photosystem II protein D1 (Spinacia oleracea)"
recorded_number = 3.82


I have 3 compounds here; please give me log10(IC50) for each one.
1. Cc1cc2[nH]c(=O)n(Cc3ccccc3)c(=O)n2n1
2. Cc1cc2[nH]c(=O)s/c(=N/C3CCCCC3)n2n1
3. Cc1cc2[nH]c(=O)s/c(=N/Cc3ccccc3)n2n1

1. 4.62
2. 2.32
3. 4.26

###

Kindly state pIC50 for each of the entries shown.
Biological target: Photosystem II protein D1 (Spinacia oleracea)
Assay: Inhibition of photosynthetic electron transport at the PSII level in intact chloroplasts from Spinacia oleracea (spinach) leaves assessed as inhibition of in vitro activity by Hill reaction assay
Conditions: read-out: IC50
Numbers only, as −log10 of the molar value.

The following molecules have reported results that may help.
[[record]]
structure_notation = "Cc1c(C(=O)O)c(C(=O)NC2CC2)nn1-c1c(Cl)cc(C(F)(F)F)cc1Cl"
assay_readout = "pIC50"
recorded_number = 1.91

[[record]]
structure_notation = "S=c1sc(NCc2ccccc2)nc2[nH]ncc12"
assay_readout = "pIC50"
recorded_number = 5.55

[[record]]
structure_notation = "CCCCNc1nc2[nH]ncc2c(=S)s1"
assay_readout = "pIC50"
recorded_number = 5.57

[[record]]
structure_notation = "Cc1c(C(=O)O)c(C(=O)NC2CC2)nn1-c1ccccc1"
assay_readout = "pIC50"
recorded_number = 1.65

[[record]]
structure_notation = "Cc1c(C(=O)O)c(C(=O)NC2CC2)nn1C(C)(C)C"
assay_readout = "pIC50"
recorded_number = 1.17

[[record]]
structure_notation = "FC(F)(F)c1cccc(Nc2nc3[nH]ncc3c(=S)s2)c1"
assay_readout = "pIC50"
recorded_number = 5.56

[[record]]
structure_notation = "CCNc1nc2[nH]ncc2c(=S)s1"
assay_readout = "pIC50"
recorded_number = 4.97

[[record]]
structure_notation = "O=c1sc(Nc2ccc([N+](=O)[O-])cc2)nc2[nH]ncc12"
assay_readout = "pIC50"
recorded_number = 2.98

[[record]]
structure_notation = "S=c1sc(Nc2ccc(Br)cc2)nc2[nH]ncc12"
assay_readout = "pIC50"
recorded_number = 5.22

[[record]]
structure_notation = "Cc1c(C(=O)O)c(C(=O)NC(C)(C)C)nn1-c1c(Cl)cc(C(F)(F)F)cc1Cl"
assay_readout = "pIC50"
recorded_number = 2.98


Below is a list of molecules. For each, state its recorded pIC50.
1. O=c1sc(Nc2ccccc2Cl)nc2[nH]ncc12
2. S=c1sc(Nc2ccccc2Cl)nc2[nH]ncc12
3. O=c1sc(NC2CCCCC2)nc2[nH]ncc12
4. O=c1sc(Nc2cccc(C(F)(F)F)c2)nc2[nH]ncc12

1: 4.32; 2: 4.37; 3: 4.18; 4: 4.48

Value lookup for pIC50; key = S=c1sc(NC2CCCCC2)nc2[nH]ncc12
6.19
